- TEST_METHOD_NOTES: Approximate solubilities (solvent added until a solution forms)
- Assay type: physicochemical
- CONDITIONS_USED: THF:water 9:1, organic solvent or mixture, THF:water 9:1; read-out: Solubility (approximate)
OUTCOME_MEASURE: solubility

| MOLECULE | REPORTED_RESULT |
| --- | --- |
| Cl.NCCc1c[nH]c(=S)n1[C@H]1COc2c(F)cc(F)cc2C1 [Form C] | > 23 mg/mL |

* * *

- TEST_METHOD_NOTES: Approximate solubilities (solvent added until a solution forms)
- Format: physicochemical
- CONDITIONS_USED: THF:water 99:1, organic solvent or mixture, THF:water 99:1; read-out: Solubility (approximate)
OUTCOME_MEASURE: solubility

| COMPOUND | REPORTED_RESULT |
| --- | --- |
| Cl.NCCc1c[nH]c(=S)n1[C@H]1COc2c(F)cc(F)cc2C1 [Form C] | < 24 mg/mL |

* * *

- TEST_METHOD_NOTES: Approximate solubilities (solvent added until a solution forms)
- Type: physicochemical
- CONDITIONS_USED: toluene, organic solvent or mixture, toluene; read-out: Solubility (approximate)

| COMPOUND | solubility |
| --- | --- |
| Cl.NCCc1c[nH]c(=S)n1[C@H]1COc2c(F)cc(F)cc2C1 [Form C] | < 1000 µg/mL |

* * *

- TEST_METHOD_NOTES: Approximate solubilities (solvent added until a solution forms)
- Assay type: physicochemical
- CONDITIONS_USED: methyl iso-butyl ketone, organic solvent or mixture, methyl iso-butyl ketone; read-out: Solubility (approximate)
OUTCOME_MEASURE: solubility

| MOLECULE | OUTCOME_MEASURE | REPORTED_RESULT |
| --- | --- | --- |
| Cl.NCCc1c[nH]c(=S)n1[C@H]1COc2c(F)cc(F)cc2C1 [Amorphous] | solubility | < 1 mg/mL |

* * *

- TEST_METHOD_NOTES: Approximate solubilities (solvent added until a solution forms)
- Assay type: physicochemical
- CONDITIONS_USED: acetone:water 90:10, organic solvent or mixture, acetone:water 90:10 (9:1); read-out: Solubility (approximate)

| MOLECULE | solubility |
| --- | --- |
| Cl.NCCc1c[nH]c(=S)n1[C@H]1COc2c(F)cc(F)cc2C1 [Form A] | > 23 mg/mL |

* * *

- TEST_METHOD_NOTES: Approximate solubilities (solvent added until a solution forms)
- Format: physicochemical
- CONDITIONS_USED: acetonitrile:water 90:10, organic solvent or mixture, acetonitrile:water 90:10 (9:1); read-out: Solubility (approximate)

| COMPOUND | solubility |
| --- | --- |
| Cl.NCCc1c[nH]c(=S)n1[C@H]1COc2c(F)cc(F)cc2C1 [Form A] | > 23 mg/mL |

* * *

- TEST_METHOD_NOTES: Approximate solubilities (solvent added until a solution forms)
- Format: physicochemical
- CONDITIONS_USED: dichloromethane, organic solvent or mixture, dichloromethane; read-out: Solubility (approximate)

| COMPOUND | solubility |
| --- | --- |
| Cl.NCCc1c[nH]c(=S)n1[C@H]1COc2c(F)cc(F)cc2C1 [Form C] | < 1000 µg/mL |
